Each entry below carries its reported Activity.
# assayed target: Muscarinic acetylcholine receptor M5 (Homo sapiens) (UniProt P08912)
# Sequence (P08912 whole entry): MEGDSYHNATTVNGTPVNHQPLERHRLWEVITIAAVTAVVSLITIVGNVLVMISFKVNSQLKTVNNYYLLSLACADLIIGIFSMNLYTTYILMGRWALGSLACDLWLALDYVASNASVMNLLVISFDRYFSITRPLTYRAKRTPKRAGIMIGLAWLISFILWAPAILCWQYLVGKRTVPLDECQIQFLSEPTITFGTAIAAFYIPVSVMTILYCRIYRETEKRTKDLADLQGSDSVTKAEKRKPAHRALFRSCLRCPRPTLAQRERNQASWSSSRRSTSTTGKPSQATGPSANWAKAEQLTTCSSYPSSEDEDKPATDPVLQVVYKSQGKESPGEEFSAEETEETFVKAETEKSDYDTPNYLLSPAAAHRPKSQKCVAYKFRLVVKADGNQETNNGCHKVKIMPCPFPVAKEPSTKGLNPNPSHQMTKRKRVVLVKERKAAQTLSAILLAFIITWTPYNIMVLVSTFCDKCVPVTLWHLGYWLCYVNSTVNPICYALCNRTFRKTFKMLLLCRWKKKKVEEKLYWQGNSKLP
# experiment description: Agonist activity at human muscarinic M5 receptor at 30 uM by calcium mobilization assay relative to acetylcholine
# Type: functional
measured property: Activity

[[record]]
molecule = "CCOC(=O)N1C[C@H]2CC[C@@H](C1)[C@H]2NCCNC(=O)c1cccc(Cl)c1"
result = "22%"

[[record]]
molecule = "CCOC(=O)N1C2CCC1CC(N1CCC[C@@H](NC(=O)c3ccccc3)C1)C2 (mixture of isomers)"
result = "21%"

[[record]]
molecule = "CCOC(=O)N1C2CCC1CC(N1CCC[C@@H](NC(=O)c3ccccc3C)C1)C2 (mixture of isomers)"
result = "62%"

[[record]]
molecule = "CCCCC1CCN(CCCN2C(=O)COc3cc(F)ccc32)CC1"
result = "28%"

[[record]]
molecule = "CCOC(=O)N1C[C@H]2CC[C@@H](C1)[C@H]2NCCNC(=O)c1ccccc1"
result = "31%"


Reference source: ChEMBL document CHEMBL2021911
